Every entry's value here was drawn from patent US20090270431A1.

# Test system: Flu B
# Format: cell-based
# condition_label: NR, MDCK
endpoint: pEC50
Remember the convention: pEC50 equals -log10 of concentration in molar.

Using the record for Nc1nccc2ncn([C@@H]3C=C(CO)[C@@H](O)[C@H]3O)c12 , report its pEC50.
4.47

* * *

# Tested on: Yellow Fever
# protocol_details: organism not typed
# Format: cell-based
# condition_label: YF; NR; Vero; read-out: EC50
endpoint: EC50

Using the record for Nc1nccc2ncn([C@@H]3C=C(CO)[C@@H](O)[C@H]3O)c12 , report its EC50.
> 100 µM

* * *

# protocol_details: cytotoxicity in the HCV RNA replicon assay
# condition_label: primary, single-dilution test
Hi there, I'd appreciate the recorded Cytotoxicity (% cell control) for every entry that follows.
Record the value in %, omitting the unit from your answer.

Using the record for Nc1ncnc2c1c(I)cn2[C@@H]1C=C(CO)C(O)C1O (stereo partly shown) , report its Cytotoxicity (% cell control).
35.2

Using the record for Nc1ncnc2c1c(F)cn2[C@@H]1C=C(CO)C(O)C1O (stereo partly shown) , report its Cytotoxicity (% cell control).
112.7

Using the record for NC(=O)c1cn([C@@H]2C=C(CO)C(O)C2O)c2ncnc(N)c12 (stereo partly shown) , report its Cytotoxicity (% cell control).
44.2

Using the record for C#Cc1cn([C@@H]2C=C(CO)C(O)C2O)c2ncnc(N)c12 (stereo partly shown) [drawing 37] , report its Cytotoxicity (% cell control).
86.6
